Assay: NCI Yeast Anticancer Drug Screen. Data for the mec2-1 strain (AID 157)
Conditions: S. cerevisiae mec2-1 strain, at 50.0 µM
Compounds without any hit were thinned out: in the full panel of roughly 79,000, 15% have a hit. Activity calls are given as the source filed them. Cut-off read from the data, not from the text of the source: active = growth inhibition above about 70%; inactive = the rest.
Possible outcomes: active, inactive

Compound: CC(=O)OCC1OCOC2C(COC(C)=O)OCOC12 (stereo unspecified)
Cat: inactive
//
Compound: O=S1(=O)CCC(Br)c2ccccc2C1 (stereo unspecified)
Cat: inactive
//
Compound: COC(=O)C(=[N+]=[N-])C(=O)c1ccccc1
Cat: inactive
//
Compound: CN(N=O)C(=O)NC(C=O)C(O)C(O)C(O)CO (stereo unspecified)
Cat: inactive
//
Compound: Cc1ccc(O)c(C(=O)c2ccccc2C(=O)O)c1
Cat: inactive
//
Compound: Fc1ccc2nc3ccccc3c(SCCNCCSc3c4ccccc4nc4ccc(F)cc34)c2c1
Cat: inactive
//
Compound: CC(C)=C1CCC(CN(C)C)C1=O (stereo unspecified)
Cat: inactive
//
Compound: COc1cc(C2CC(C)(N3CCCC3)Oc3cc4c(cc32)OCO4)cc(OC)c1OC (stereo unspecified)
Cat: inactive
//
Compound: C/C=C/C(O)CCCC (stereo unspecified)
Cat: inactive
//
Compound: C[N+]1(C)C2C=CCC1CSC2 (stereo unspecified)
Cat: inactive
//
Compound: Cn1ncc2c(=O)[nH]c(NN)nc21
Cat: inactive
//
Compound: Cc1nc(C)c(N2CCN(S(N)(=O)=O)CC2)c(=O)[nH]1
Cat: inactive
//
Compound: CCN(CCOC(=O)Nc1cccc(C(C)=O)c1)c1ccccc1
Cat: active
//
Compound: CCB1OC2C(COC(C)=O)OC(OC(C)=O)C2O1 (stereo unspecified)
Cat: inactive
//
Compound: CCCc1nc(N)[nH]c(=O)c1I
Cat: inactive
//
Compound: CC(=O)C1CCC2C3CCC4CC5(CCC4(C)C3C(=O)CC12C)NC(C(=O)O)CS5 (stereo unspecified)
Cat: inactive

---

Test: NCI Yeast Anticancer Drug Screen. Data for the cln2 rad14 strain (AID 165);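 note: 0% = growth equal to vehicle treated cultures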
Settings: S. cerevisiae cln2 rad14 strain, at 50.0 µM, hits give high values
The panel holds about 79,000 compounds, 15% with a hit somewhere; the sample as a whole holds those more often.
Let's look at some compounds and their measured growth inhibition.

Compound: COC1=C(C(=O)c2ccc(OC)c(OC)c2)COC1=O
Unit Abbrev: %
growth inhibition: -4.4
--
Compound: OCC1C2C=CC(C3C=CC32)C1CO (stereo not given)
Unit Abbrev: %
growth inhibition: -89.7
--
Compound: Cc1n[nH]c(=O)n1Nc1ccccc1
Unit Abbrev: %
growth inhibition: 13.3
--
Compound: COc1nc(NC2OC(COC(C)=O)C(OC(C)=O)C(OC(C)=O)C2OC(C)=O)c(-c2csc(N)n2)c(=O)n1C (stereo not given)
Unit Abbrev: %
growth inhibition: 4.35
--
Compound: O/N=C(/C(=N\O)c1ccco1)c1ccco1
Unit Abbrev: %
growth inhibition: 2.45
--
Compound: CCCC1C(CC)C(NC)C(C#N)(C#N)C1(C#N)C#N (stereo not given)
Unit Abbrev: %
growth inhibition: 26.3
--
Compound: CCC1CN2CCc3cc(OC)c(OC)cc3C2CC1(O)C#N (stereo not given)
Unit Abbrev: %
growth inhibition: 0.6
--
Compound: CCCOC(=O)/C=C/C(=O)N1CC(C)N(C(=O)/C=C/C(=O)OCCC)CC1C (stereo not given)
Unit Abbrev: %
growth inhibition: 42.6
--
Compound: CCOc1nc(N)nc(C)c1N=Nc1ccc(C)cc1
Unit Abbrev: %
growth inhibition: -34.4
--
Compound: O=C(O)C1Cc2c([nH]c3ccccc23)C=N1 (stereo not given)
Unit Abbrev: %
growth inhibition: 22.2
--
Compound: O=c1cc(-c2ccccc2)[nH]c2nccn12
Unit Abbrev: %
growth inhibition: -57.5
--
Compound: COc1cc2c(cc1OC)-c1cc3cc(OC)c(OC)cc3c(C)[n+]1CC2 (tested in a mixture with another compound)
Unit Abbrev: %
growth inhibition: 19.4
--
Compound: Cn1ncc2c(NN)nc(Cl)nc21
Unit Abbrev: %
growth inhibition: -18.4
--
Compound: COc1ccc(C(O)CNC(=O)c2ccccc2)cc1 (stereo not given)
Unit Abbrev: %
growth inhibition: -7.2
--
Compound: COc1ccccc1Br
Unit Abbrev: %
growth inhibition: -15.3

---

Assay: NCI Yeast Anticancer Drug Screen. Data for the mec2-1 strain (AID 157)
Conditions: S. cerevisiae mec2-1 strain, at 50.0 µM, hits give high values
The panel holds about 79,000 compounds, 15% with a hit somewhere; the sample as a whole holds those more often.
Let's look at some molecules and their measured growth inhibition.

Molecule: O=C(N/N=C/c1ccccc1)C1CC1
growth inhibition [%]: -10.2
--
Molecule: Nc1ccc(P(=O)(O)c2ccc(N)cc2Br)c(Br)c1
growth inhibition [%]: -6.1
--
Molecule: Cc1cn(C2CC(O)C(O)C(C)O2)c(=O)[nH]c1=O (stereo not given)
growth inhibition [%]: 6.15
--
Molecule: c1ccc(B2Nc3ccccc3O2)cc1
growth inhibition [%]: 7.05
--
Molecule: Cc1ccc(S(=O)(=O)N/N=C2\CCC3(C)C(CCC4C3CCC3(C)C(C(C)CCCC(C)C)CCC43)C2)cc1 (stereo not given)
growth inhibition [%]: 17.8
--
Molecule: COC(=O)c1ccc(SCCC(=O)CNc2nc(N)nc(N)c2[N+](=O)[O-])cc1
growth inhibition [%]: -13.3
--
Molecule: CCOC(=O)C1=C(C(=O)c2ccc(C)cc2)C(c2ccc([N+](=O)[O-])cc2)C(C(=O)c2ccc(C)cc2)=C(C(=O)OCC)N1
growth inhibition [%]: -18.2
--
Molecule: O=C1c2ccccc2C(=O)c2c1oc1c2ccc2ccccc21
growth inhibition [%]: 7
--
Molecule: CCOC(=O)Oc1ccc2[nH]c3c(C)cc(N)c(C)c3c2c1
growth inhibition [%]: -33.2
--
Molecule: O=S(=O)(O)CCCCBr
growth inhibition [%]: -31.4
--
Molecule: Cc1ccc(C(=O)NC2CCCCC2)cc1N=NN(C)C
growth inhibition [%]: -7.55
--
Molecule: CC1=C(C(=O)CC(=O)Nc2ccc(Cl)c(Cl)c2)Sc2ccccc2N1
growth inhibition [%]: 21.9
--
Molecule: COC(=O)c1ccccc1NC(OC)c1cccc([N+](=O)[O-])c1 (stereo not given)
growth inhibition [%]: 13.4
--
Molecule: NC(=Nc1ccccc1)c1ccc(Cl)cc1
growth inhibition [%]: 96.5
--
Molecule: CCCCCCC1(C=O)C(=O)NC(=O)N1C (stereo not given)
growth inhibition [%]: 9.65
--
Molecule: O=C1CCSc2nc(-c3ccc4c(c3)OCO4)nn21
growth inhibition [%]: -8.5
--
Molecule: CC/C(Cl)=N\OC(=O)Nc1ccccc1OC(F)(F)F
growth inhibition [%]: -15.4
--
Molecule: CCOC1C[C@H]2C[C@H]3[C@@H]4CC=C5C[C@@H](OC(C)=O)CC[C@]5(C)[C@H]4CC[C@]3(C)C2=C(C)O1 (stereo not given in full)
growth inhibition [%]: 12.7
--
Molecule: C[C@@H]1CN[C@@H](C)CN1
growth inhibition [%]: -30.3
--
Molecule: CCOC(=O)C1=NNC(=O)C1
growth inhibition [%]: -2.95

---

Test: NCI Yeast Anticancer Drug Screen. Data for the bub3 strain (AID 167)
Conditions: S. cerevisiae bub3 mutant strain, at 50.0 µM, hits give high values
The panel holds about 79,000 compounds, 15% with a hit somewhere; the sample as a whole holds those more often.

Compound: Cn1ncc2c(=O)[nH]c(NN)nc21
growth inhibition, %: -0.95
--
Compound: COc1ccc(C2N3CCCCC3[C@@H]3c4[nH]c5ccccc5c4CCN23)c(OC)c1 (stereo partly drawn)
growth inhibition, %: -5.3
--
Compound: O=c1[nH]c(Nc2cccc(CO)c2)nc2nc[nH]c12
growth inhibition, %: -15.7
--
Compound: CCOc1ccc(OCC)c2c1C(=O)c1ccccc1C2=O
growth inhibition, %: 9.15
--
Compound: COC(=O)c1ccc(Cl)nc1
growth inhibition, %: -11.1
--
Compound: CCOC(=O)COc1c(C)cccc1Cl
growth inhibition, %: -23.6
--
Compound: CCC(C)C1NC(=S)N(c2ccccc2)C1=O (stereo not drawn)
growth inhibition, %: -9
--
Compound: CCOC(=O)c1cc2nc3ccccn3c(=O)c2cc1N
growth inhibition, %: -9.3
--
Compound: CCCC/C(CC)=N\N=C(/CC)CCCC
growth inhibition, %: 3.15
--
Compound: CC(Sc1ccc([N+](=O)[O-])cn1)C(=O)O (stereo not drawn)
growth inhibition, %: -25.9
--
Compound: CCOC(=O)C1=C(C)OC(C)(OC(C)=O)C1=O (stereo not drawn)
growth inhibition, %: -6.9
--
Compound: CCOC(=O)/C(=C\c1cccc(F)c1)C(C)=O
growth inhibition, %: 13.7
--
Compound: O=C(c1ccccc1Cl)c1ccc2ccccc2c1C(=O)O
growth inhibition, %: -10
--
Compound: CCOC(=O)c1c(C)nc(C)c(C(=O)OCC)c1-c1ccnc2ccccc12
growth inhibition, %: -3.95
--
Compound: CCCCCCCCCCCCNC(=S)N/N=C/c1ccc(OC)cc1
growth inhibition, %: -8.4
--
Compound: S=c1[nH]nc(-c2ccccc2)n1/N=C\c1ccc(-c2ccc(Cl)cc2)o1
growth inhibition, %: -2.35
--
Compound: Brc1cc2c(cc1C1SCCS1)OCO2
growth inhibition, %: 28.3
--
Compound: OCC(O)C(O)C(O)C(O)/C=N\Nc1ccccc1 (stereo not drawn)
growth inhibition, %: 81
--
Compound: CCSC1OC(C(COC(C)=O)OC(C)=O)C(OC(C)=O)C1NC(=O)OCc1ccccc1 (stereo not drawn)
growth inhibition, %: 1
--
Compound: O=CC1OC(c2ccccc2)OC1C1OC(c2ccccc2)OC1C=O (stereo not drawn)
growth inhibition, %: 17.9
--
Compound: O=C1C=C(Nc2ccccc2C(=O)c2ccccc2)c2ccccc2C1=O
growth inhibition, %: 14.8
--
Compound: COC(=O)C(=[N+]=[N-])C(=O)c1cccc([N+](=O)[O-])c1
growth inhibition, %: 3.2
--
Compound: O=C(NCCN1CCCCC1)c1cccc(I)c1
growth inhibition, %: 8.15
--
Compound: CC(=O)NC(c1ccc(Cl)cc1)(c1ccc(Cl)cc1)C(Cl)(Cl)Cl
growth inhibition, %: 10.4
--
Compound: O=C1OCCC1(Cc1ccc(Cl)cc1)Cc1ccc(Cl)cc1
growth inhibition, %: 1.45
--
Compound: COc1ccc(-n2cnc3c(cnn3C3OC(CO)C(O)C3O)c2=O)cc1 (stereo not drawn)
growth inhibition, %: -4.25
--
Compound: CNC(=S)NNC1=NCCCCN1
growth inhibition, %: 2.1
--
Compound: [Mn].[NH-]C(CSSCC(N)C(=O)O)C(=O)O (stereo not drawn)
growth inhibition, %: 22.6
--
Compound: Cc1nc(C)c(Cc2ccccc2)o1
growth inhibition, %: 5.3
--
Compound: COc1cc([N+](=O)[O-])c(F)cc1F
growth inhibition, %: 9.35
--
Compound: COc1ccc(C2=C(C#N)C(=C(C#N)C#N)NC(N)=C2C#N)cc1
growth inhibition, %: -19.4
--
Compound: CSc1nsc(SC)c1C(N)=O
growth inhibition, %: 16.2
--
Compound: CCC(=O)NCCO
growth inhibition, %: -9
